Data origin: patent US20100041597A1

target: PKC-βI (Homo sapiens); assay: ELISA-based competitive binding assay with purified PKC isoform; design: key: —: no detectable affinity; Low to very low affinity at 10X or 20X or both PRE concentrations in at least one cell line in the cell extract assay; Low affinity in purified isoform assay.; Moderate affinity at 10X or 20X or both PRE concentrations in at least one cell line in the cell extract assay.; High affinity at 10X or 20X or both PRE concentrations in at least one cell line in the cell extract assay; High affinity in purified isoform assay; conditions: Purified isoform; Table 20
Sequence (P05771 whole entry, canonical isoform): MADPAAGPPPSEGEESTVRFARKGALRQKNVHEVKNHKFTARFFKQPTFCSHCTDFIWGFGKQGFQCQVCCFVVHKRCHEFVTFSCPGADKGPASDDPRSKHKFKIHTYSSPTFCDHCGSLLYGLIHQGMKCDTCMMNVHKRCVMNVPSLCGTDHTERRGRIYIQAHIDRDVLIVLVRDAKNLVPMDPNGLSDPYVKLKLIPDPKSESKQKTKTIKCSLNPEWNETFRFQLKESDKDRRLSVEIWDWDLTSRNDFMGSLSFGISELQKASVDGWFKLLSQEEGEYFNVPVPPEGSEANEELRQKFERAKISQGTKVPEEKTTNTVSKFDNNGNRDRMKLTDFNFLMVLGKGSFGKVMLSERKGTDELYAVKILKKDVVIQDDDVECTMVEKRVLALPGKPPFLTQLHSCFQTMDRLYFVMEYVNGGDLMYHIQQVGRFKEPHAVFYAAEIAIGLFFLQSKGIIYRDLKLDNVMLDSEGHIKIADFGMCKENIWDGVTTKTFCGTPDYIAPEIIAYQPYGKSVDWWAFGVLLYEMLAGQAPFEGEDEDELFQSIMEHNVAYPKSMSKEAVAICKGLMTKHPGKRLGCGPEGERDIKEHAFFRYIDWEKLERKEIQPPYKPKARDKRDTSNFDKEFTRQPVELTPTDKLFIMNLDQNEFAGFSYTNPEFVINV

| SUBSTANCE | Affinity for PKC isoform βI |
| --- | --- |
| Ac-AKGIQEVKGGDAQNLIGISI-NH2 [PRE 3] | H |
| RRKKGGKDFVVKR [PRE 1] | H |
| Ac-RDAQNLIGISI-NH2 [PRE 11] | — |
| ILEDKGGDAQNLIGISI [PRE 8] | — |
| Ac-KDAQNLI-NH2 [PRE 12] | — |
| Ac-ISIGILNQADK-NH2 [PRE 10] | — |
| Ac-ISIGILQNADK-NH2 [PRE 7] | — |

====

molecular target: PKC-βI (Homo sapiens, UniProt P05771); experiment: Competitive binding assay using cell extracts (Western blot); parameters: cytoplasmic extracts from different cell lines expressing appropriate PKC isoforms; endogenous in cells; host or cells: H661, MDAMB231, LS180, T24; key: —: no detectable affinity; Low to very low affinity at 10X or 20X or both PRE concentrations in at least one cell line in the cell extract assay; Low affinity in purified isoform assay.; Moderate affinity at 10X or 20X or both PRE concentrations in at least one cell line in the cell extract assay.; High affinity at 10X or 20X or both PRE concentrations in at least one cell line in the cell extract assay; High affinity in purified isoform assay; details: Cell extract; PRE at 10X, 20X antibody concentration; Table 20
Sequence (P05771 2-671): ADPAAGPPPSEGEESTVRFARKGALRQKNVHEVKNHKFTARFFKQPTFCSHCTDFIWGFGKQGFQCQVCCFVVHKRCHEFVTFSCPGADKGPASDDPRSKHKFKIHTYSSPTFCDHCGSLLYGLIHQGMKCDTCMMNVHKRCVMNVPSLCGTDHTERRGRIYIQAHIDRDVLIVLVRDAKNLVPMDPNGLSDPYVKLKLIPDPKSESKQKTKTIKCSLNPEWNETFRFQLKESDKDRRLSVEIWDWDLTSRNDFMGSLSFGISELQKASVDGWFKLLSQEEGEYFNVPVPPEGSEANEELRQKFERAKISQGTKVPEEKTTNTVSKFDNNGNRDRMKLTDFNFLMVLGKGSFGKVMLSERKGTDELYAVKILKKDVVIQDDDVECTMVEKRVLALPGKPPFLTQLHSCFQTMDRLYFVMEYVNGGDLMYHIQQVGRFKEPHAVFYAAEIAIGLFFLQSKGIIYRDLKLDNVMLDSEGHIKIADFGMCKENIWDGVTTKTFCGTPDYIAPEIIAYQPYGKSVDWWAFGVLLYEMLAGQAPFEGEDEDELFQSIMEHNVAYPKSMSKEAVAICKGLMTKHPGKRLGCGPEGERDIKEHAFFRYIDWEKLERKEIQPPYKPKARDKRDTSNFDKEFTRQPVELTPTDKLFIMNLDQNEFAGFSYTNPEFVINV

| SUBSTANCE | Affinity for PKC isoform βI |
| --- | --- |
| Ac-RDAQNLIGISI-NH2 [PRE 11] | H |
| RRKKGGKDFVVKR [PRE 1] | H |
| Ac-KDAQNLI-NH2 [PRE 12] | — |
| Ac-KDANQLIGISI-NH2 [PRE 6] | H |
| Ac-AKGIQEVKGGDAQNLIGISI-NH2 [PRE 3] | L |
| Ac-KDAQNLIGISI-NH2 [PRE 4, Ac-KDAQNLIGISI-NH2] | H |
| Ac-ISIGILNQADK-NH2 [PRE 10] | M |
| Ac-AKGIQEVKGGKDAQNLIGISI-NH2 [PRE 5] | H |
| Ac-ISIGILQNADK-NH2 [PRE 7] | — |
| Ac-RDAQNLI-NH2 [PRE 13] | — |

====

experiment: In vitro toxicity test (fluorimetric DNA assay, Hoechst); assay type: cell-based, human; details: human, IMR-32 neuroblastoma cells; 250 μg/ml; 72 h; Table 13; read-out: % survival

| SUBSTANCE | viability at 72 h, 250 µg/mL [%] |
| --- | --- |
| Ac-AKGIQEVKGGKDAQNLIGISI-NH2 [PRE 5] | 89 |

====

molecular target: PKC-δ (Homo sapiens); test: Competitive binding assay using cell extracts (Western blot); design: cytoplasmic extracts from different cell lines expressing appropriate PKC isoforms; endogenous in cells; host or cells: H661, MDAMB231, LS180, T24 (human, from ATCC); key: —: no detectable affinity; Low to very low affinity at 10X or 20X or both PRE concentrations in at least one cell line in the cell extract assay; Low affinity in purified isoform assay.; Moderate affinity at 10X or 20X or both PRE concentrations in at least one cell line in the cell extract assay.; High affinity at 10X or 20X or both PRE concentrations in at least one cell line in the cell extract assay; High affinity in purified isoform assay; details: Cell extract; PRE at 10X, 20X antibody concentration; Table 20
Sequence (Q05655 whole entry, canonical isoform): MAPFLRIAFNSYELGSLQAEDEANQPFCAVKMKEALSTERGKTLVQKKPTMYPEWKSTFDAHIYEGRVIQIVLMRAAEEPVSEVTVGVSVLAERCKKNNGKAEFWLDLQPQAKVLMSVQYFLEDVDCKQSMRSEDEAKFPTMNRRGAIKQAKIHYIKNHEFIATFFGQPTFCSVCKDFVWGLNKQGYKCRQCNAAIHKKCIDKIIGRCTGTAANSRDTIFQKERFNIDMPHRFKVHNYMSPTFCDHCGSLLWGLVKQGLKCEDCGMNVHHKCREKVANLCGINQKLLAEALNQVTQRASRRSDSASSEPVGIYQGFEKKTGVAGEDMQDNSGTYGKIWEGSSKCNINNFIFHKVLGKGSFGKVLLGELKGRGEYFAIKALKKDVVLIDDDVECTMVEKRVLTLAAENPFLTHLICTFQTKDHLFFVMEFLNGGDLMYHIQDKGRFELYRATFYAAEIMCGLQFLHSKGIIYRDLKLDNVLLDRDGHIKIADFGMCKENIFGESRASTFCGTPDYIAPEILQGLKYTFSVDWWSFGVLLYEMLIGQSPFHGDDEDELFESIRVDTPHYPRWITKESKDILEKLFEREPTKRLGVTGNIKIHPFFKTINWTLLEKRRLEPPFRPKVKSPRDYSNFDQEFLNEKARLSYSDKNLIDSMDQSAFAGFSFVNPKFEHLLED

| SUBSTANCE | Affinity for PKC isoform δ |
| --- | --- |
| Ac-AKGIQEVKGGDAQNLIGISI-NH2 [PRE 3] | H |
| Ac-KDAQNLI-NH2 [PRE 12] | — |
| Ac-RDAQNLIGISI-NH2 [PRE 11] | — |
| Ac-ISIGILQNADK-NH2 [PRE 7] | L |

====

Target: PKC-ι (Homo sapiens, UniProt P41743)
Construct: cytoplasmic extracts from different cell lines expressing appropriate PKC isoforms; endogenous in cells; host or cells: MDAMB231, LnCAP, H661, CCD16Lu, Du145, LS180 (human, from ATCC)
Sequence (P41743 1-596): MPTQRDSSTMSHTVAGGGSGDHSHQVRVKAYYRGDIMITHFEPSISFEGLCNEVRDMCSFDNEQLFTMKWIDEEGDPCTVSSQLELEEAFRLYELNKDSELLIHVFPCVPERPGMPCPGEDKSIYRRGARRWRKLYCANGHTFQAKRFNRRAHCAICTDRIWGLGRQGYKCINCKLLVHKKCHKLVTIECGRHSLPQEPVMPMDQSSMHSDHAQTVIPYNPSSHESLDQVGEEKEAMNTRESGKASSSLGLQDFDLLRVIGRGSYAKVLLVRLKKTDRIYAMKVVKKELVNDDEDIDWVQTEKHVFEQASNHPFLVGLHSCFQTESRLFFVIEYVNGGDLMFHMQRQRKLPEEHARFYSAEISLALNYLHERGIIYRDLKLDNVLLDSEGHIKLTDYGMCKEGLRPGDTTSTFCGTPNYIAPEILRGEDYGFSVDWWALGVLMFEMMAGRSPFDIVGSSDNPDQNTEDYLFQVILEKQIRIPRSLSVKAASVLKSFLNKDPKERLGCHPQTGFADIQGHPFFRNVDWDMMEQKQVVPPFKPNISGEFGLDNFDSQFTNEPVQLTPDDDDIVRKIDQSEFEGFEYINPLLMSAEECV
Assay: Competitive binding assay using cell extracts (Western blot)
Parameters: key: —: no detectable affinity; Low to very low affinity at 10X or 20X or both PRE concentrations in at least one cell line in the cell extract assay; Low affinity in purified isoform assay.; Moderate affinity at 10X or 20X or both PRE concentrations in at least one cell line in the cell extract assay.; High affinity at 10X or 20X or both PRE concentrations in at least one cell line in the cell extract assay; High affinity in purified isoform assay
Details: Cell extract; PRE at 10X, 20X antibody concentration; Table 20
PROPERTY_NAME: Affinity for PKC isoform ι

| SUBSTANCE | RESULT |
| --- | --- |
| Ac-KDAQNLI-NH2 [PRE 12] | — |
| Ac-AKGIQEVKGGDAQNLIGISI-NH2 [PRE 3] | L |
| Ac-ISIGILQNADK-NH2 [PRE 7] | — |
| Ac-RDAQNLI-NH2 [PRE 13] | — |
| RRKKGGKDFVVKR [PRE 1] | — |
| Ac-KDANQLIGISI-NH2 [PRE 6] | — |
| Ac-KDAQNLIGISI-NH2 [PRE 4, Ac-KDAQNLIGISI-NH2] | M/L |

====

target: PKC-δ (Homo sapiens); test: Competitive binding assay using cell extracts (Western blot); design: cytoplasmic extracts from different cell lines expressing appropriate PKC isoforms; endogenous in cells; host or cells: H661, MDAMB231, LS180, T24 (human, from ATCC); key: —: no detectable affinity; Low to very low affinity at 10X or 20X or both PRE concentrations in at least one cell line in the cell extract assay; Low affinity in purified isoform assay.; Moderate affinity at 10X or 20X or both PRE concentrations in at least one cell line in the cell extract assay.; High affinity at 10X or 20X or both PRE concentrations in at least one cell line in the cell extract assay; High affinity in purified isoform assay; settings: Cell extract; PRE at 10X, 20X antibody concentration; Table 20

| SUBSTANCE | Affinity for PKC isoform δ |
| --- | --- |
| ILEDKGGDAQNLIGISI [PRE 8] | L |
| Ac-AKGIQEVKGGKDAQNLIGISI-NH2 [PRE 5] | — |
| Ac-KDANQLIGISI-NH2 [PRE 6] | M/H |
| Ac-ISIGILNQADK-NH2 [PRE 10] | H |
| Ac-RDAQNLI-NH2 [PRE 13] | — |
| RRKKGGKDFVVKR [PRE 1] | — |
| Ac-KDAQNLIGISI-NH2 [PRE 4, Ac-KDAQNLIGISI-NH2] | — |

====

target: PKC-ζ (Homo sapiens); assay: Competitive binding assay using cell extracts (Western blot); set-up: cytoplasmic extracts from different cell lines expressing appropriate PKC isoforms; endogenous in cells; host or cells: MDAMB231, LnCAP, Du145, H661, CCD16Lu (human, from ATCC); key: —: no detectable affinity; Low to very low affinity at 10X or 20X or both PRE concentrations in at least one cell line in the cell extract assay; Low affinity in purified isoform assay.; Moderate affinity at 10X or 20X or both PRE concentrations in at least one cell line in the cell extract assay.; High affinity at 10X or 20X or both PRE concentrations in at least one cell line in the cell extract assay; High affinity in purified isoform assay; details: Cell extract; PRE at 10X, 20X antibody concentration; Table 20
Sequence (Q05513 whole entry, canonical isoform): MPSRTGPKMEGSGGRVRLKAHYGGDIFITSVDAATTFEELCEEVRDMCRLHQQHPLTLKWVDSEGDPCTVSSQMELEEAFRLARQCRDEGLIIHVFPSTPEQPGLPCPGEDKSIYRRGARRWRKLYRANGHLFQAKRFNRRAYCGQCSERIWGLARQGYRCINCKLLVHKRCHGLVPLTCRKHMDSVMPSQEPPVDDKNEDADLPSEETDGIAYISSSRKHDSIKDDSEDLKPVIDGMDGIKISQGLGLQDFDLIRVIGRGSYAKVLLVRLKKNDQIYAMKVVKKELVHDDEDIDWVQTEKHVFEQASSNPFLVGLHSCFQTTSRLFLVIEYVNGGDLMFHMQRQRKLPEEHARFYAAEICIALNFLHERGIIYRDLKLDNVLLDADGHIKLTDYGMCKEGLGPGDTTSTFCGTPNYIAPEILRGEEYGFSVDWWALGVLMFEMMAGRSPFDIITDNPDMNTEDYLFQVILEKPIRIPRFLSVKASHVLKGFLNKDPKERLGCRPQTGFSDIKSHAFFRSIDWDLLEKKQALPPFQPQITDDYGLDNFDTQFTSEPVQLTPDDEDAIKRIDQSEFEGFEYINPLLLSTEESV
PROPERTY_NAME: Affinity for PKC isoform ζ

| SUBSTANCE | RESULT |
| --- | --- |
| Ac-KDAQNLIGISI-NH2 [PRE 4, Ac-KDAQNLIGISI-NH2] | — |
| Ac-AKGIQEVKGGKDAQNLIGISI-NH2 [PRE 5] | L/H |
| Ac-ISIGILQNADK-NH2 [PRE 7] | — |
